Recorded measurements of pIC50, one per entry
target: UniProtKB P49759
Sequence (P49759 161-477 limits assumed): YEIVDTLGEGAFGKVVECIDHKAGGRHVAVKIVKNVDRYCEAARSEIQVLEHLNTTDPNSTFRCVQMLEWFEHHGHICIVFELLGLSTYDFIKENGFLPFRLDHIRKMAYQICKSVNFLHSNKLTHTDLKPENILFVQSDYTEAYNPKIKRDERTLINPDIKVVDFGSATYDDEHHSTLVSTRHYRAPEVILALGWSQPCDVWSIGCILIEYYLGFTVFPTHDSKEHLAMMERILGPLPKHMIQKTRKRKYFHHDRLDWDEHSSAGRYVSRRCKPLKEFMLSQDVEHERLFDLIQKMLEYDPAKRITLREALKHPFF
Here pIC50 is given on a logarithmic scale as minus log10 of the concentration in mol/L.

COc1ccc([C@@H](C)NC(=O)c2ccc3c(c2)/C(=C(/Nc2ccc(CN4CCCCC4)cc2)c2ccccc2)C(=O)N3)cc1 | 7.70
C[C@@H](NC(=O)c1ccc2c(c1)/C(=C(/Nc1cccc(CN3CCCCC3)c1)c1ccccc1)C(=O)N2)c1ccccc1 | 7.52

Query: State its pIC50 on UniProtKB P49759: `CC[C@H](NC(=O)c1ccc2c(c1)/C(=C(/Nc1ccc(CN3CCCCC3)cc1)c1ccccc1)C(=O)N2)c1ccccc1`
Reply: 7.00

Query: For the record `COc1cccc(CNC(=O)c2ccc3c(c2)/C(=C(/Nc2ccc(CN4CCN(C)CC4)cc2)c2ccccc2)C(=O)N3)c1` , what value of pIC50 is listed for UniProtKB P49759?
Reply: 8.00

Query: Item `C[C@@H](NC(=O)c1ccc2c(c1)/C(=C(/Nc1ccc(CN3CCN(C)CC3)cc1)c1ccccc1)C(=O)N2)c1cccc(Cl)c1` with UniProtKB P49759 - pIC50?
Reply: 7.70

Query: Item: `COc1cccc([C@@H](C)NC(=O)c2ccc3c(c2)/C(=C(/Nc2cccc(CN4CCCCC4)c2)c2ccccc2)C(=O)N3)c1` Test system: UniProtKB P49759 Read-out: pIC50 Value: ?
Reply: 7.10

---

tested on: HCT-116 human colon carcinoma cell line; test: In vitro growth inhibition of colon carcinoma cells, HCT-116 (CellTiter-Glo); format: cell-based; settings: 72 hours incubation, read-out: HCT116 EC50
observation_type: pEC50
Please express pEC50 as -log10 of the molar concentration.

Reference set, count: 2
CC[C@@H](NC(=O)c1ccc2c(c1)/C(=C(/Nc1ccc(CN3CCN(C)CC3)cc1)c1ccccc1)C(=O)N2)c1ccccc1 [Compound 37] | 9.00
C[C@@H](NC(=O)c1ccc2c(c1)/C(=C(/Nc1ccc(CN3CCN(C)CC3)cc1)c1ccccc1)C(=O)N2)c1ccccc1 [Compound 38] | 8.00

Read the next record carefully.
Query: Recorded pEC50 of COc1ccc([C@@H](C)NC(=O)c2ccc3c(c2)/C(=C(/Nc2ccc(CN4CCCCC4)cc2)c2ccccc2)C(=O)N3)cc1 [Compound 21] , please.
Reply: 6.39

---

Catalogue of log10 EC50 values
test system: HKE3 human colon carcinoma cell line; test: In vitro growth inhibition of colon carcinoma cells, HKE3 (CellTiter-Glo); format: cell-based; settings: 72 hours incubation
Reminder: these figures are log10 of reported EC50, in nM before transformation.

C[C@H](NC(=O)c1ccc2c(c1)/C(=C(/Nc1ccc(CN3CCCCC3)cc1)c1ccccc1)C(=O)N2)c1ccccc1 | 1.00

Query: What value of log10 EC50 has been reported for the following molecule? `C[C@@H](NC(=O)c1ccc2c(c1)/C(=C(/Nc1ccc(CN3CCN(C)CC3)cc1)c1ccccc1)C(=O)N2)c1cccc(Cl)c1`
Reply: 1.30

Query: What measured log10 EC50 goes with `COc1cccc([C@@H](C)NC(=O)c2ccc3c(c2)/C(=C(/Nc2cccc(CN4CCCCC4)c2)c2ccccc2)C(=O)N3)c1` ?
Reply: 2.46

Query: # get_value(readout='log10 EC50', item= `COc1cccc([C@@H](C)NC(=O)c2ccc3c(c2)/C(=C(/Nc2ccc(CN4CCN(C)CC4)cc2)c2ccccc2)C(=O)N3)c1` )
Reply: 1.30

Query: Reported log10 EC50 for `COc1ccc([C@@H](C)NC(=O)c2ccc3c(c2)/C(=C(/Nc2ccc(CN4CCCCC4)cc2)c2ccccc2)C(=O)N3)cc1` : what is it?
Reply: 2.51

Query: I'd like to know its log10 EC50. The molecule in question is `COc1ccc(CNC(=O)c2ccc3c(c2)/C(=C(/Nc2ccc(CN4CCN(C)CC4)cc2)c2ccccc2)C(=O)N3)cc1OC`
Reply: 3.47

---

target: human Akt1 kinase (Homo sapiens); assay: In vitro Akt1 assay (IMAP fluorescence polarization, phosphorylation of TAMRA-peptide); type: biochemical; conditions: 40 µM ATP
Sequence (P31749 whole entry): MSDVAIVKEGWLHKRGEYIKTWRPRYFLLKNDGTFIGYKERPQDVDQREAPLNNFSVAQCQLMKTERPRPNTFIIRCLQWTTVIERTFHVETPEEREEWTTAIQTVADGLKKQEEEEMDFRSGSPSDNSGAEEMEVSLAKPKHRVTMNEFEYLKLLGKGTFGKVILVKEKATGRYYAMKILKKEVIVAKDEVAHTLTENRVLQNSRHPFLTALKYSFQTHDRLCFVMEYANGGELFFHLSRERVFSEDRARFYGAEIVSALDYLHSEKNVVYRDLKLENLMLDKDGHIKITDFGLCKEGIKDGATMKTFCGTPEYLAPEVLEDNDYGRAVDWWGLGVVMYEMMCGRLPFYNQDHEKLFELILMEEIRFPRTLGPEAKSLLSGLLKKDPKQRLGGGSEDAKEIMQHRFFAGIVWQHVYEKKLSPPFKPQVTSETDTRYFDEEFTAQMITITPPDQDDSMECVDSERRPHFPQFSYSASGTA
observation_type: IC50 (µM)
Please respond with the number in µM and leave the unit unwritten.

These recorded examples may help you get a feel for the data.
Cc1ccc([C@@H](C)NC(=O)c2ccc3c(c2)/C(=C(/Nc2cccc(CN4CCCCC4)c2)c2ccccc2)C(=O)N3)cc1 | 2.96
COc1ccc(CNC(=O)c2ccc3c(c2)/C(=C(/Nc2ccc(CN4CCN(C)CC4)cc2)c2ccccc2)C(=O)N3)cc1OC | 12.3
C[C@@H](NC(=O)c1ccc2c(c1)/C(=C(/Nc1ccc(CN3CCN(C)CC3)cc1)c1ccccc1)C(=O)N2)c1cccc(Cl)c1 | 0.33
COc1cccc([C@@H](C)NC(=O)c2ccc3c(c2)/C(=C(/Nc2ccc(CN4CCCCC4)cc2)c2ccccc2)C(=O)N3)c1 | 0.11
C[C@H](NC(=O)c1ccc2c(c1)/C(=C(/Nc1ccc(CN3CCCCC3)cc1)c1ccccc1)C(=O)N2)c1ccccc1 | 1.3
CC[C@@H](NC(=O)c1ccc2c(c1)/C(=C(/Nc1cccc(CN3CCCCC3)c1)c1ccccc1)C(=O)N2)c1ccccc1 | 7.98
COc1cccc(CNC(=O)c2ccc3c(c2)/C(=C(/Nc2ccc(CN4CCN(C)CC4)cc2)c2ccccc2)C(=O)N3)c1 | 3.4
C[C@@H](NC(=O)c1ccc2c(c1)/C(=C(/Nc1ccc(CN3CCCCC3)cc1)c1ccccc1)C(=O)N2)c1ccc(F)cc1 | 0.18
COc1cccc([C@@H](C)NC(=O)c2ccc3c(c2)/C(=C(/Nc2cccc(CN4CCCCC4)c2)c2ccccc2)C(=O)N3)c1 | 0.88

Let's switch to this compound now.
Query: Which IC50 is reported for this compound? `O=C1Nc2ccc(C(=O)NCc3ccccc3)cc2/C1=C(/Nc1ccc(CN2CCCCC2)cc1)c1ccccc1`
Reply: 0.91

---

Heads up, these compounds all have IC50 values measured for UniProt:P31749.

See these solved cases before continuing.
C[C@@H](NC(=O)c1ccc2c(c1)/C(=C(/Nc1ccc(CN3CCN(C)CC3)cc1)c1ccccc1)C(=O)N2)c1ccccc1 | 1.83 µM
CC[C@@H](NC(=O)c1ccc2c(c1)/C(=C(/Nc1ccc(CN3CCCCC3)cc1)c1ccccc1)C(=O)N2)c1ccccc1 | 0.57 µM

Could you now consider this next compound?
Query: Item `COc1ccc([C@@H](C)NC(=O)c2ccc3c(c2)/C(=C(/Nc2ccc(CN4CCCCC4)cc2)c2ccccc2)C(=O)N3)cc1` has what recorded IC50?
Reply: 1.7 µM

---

Quick reference: inhibition at 12.5 µM of the listed items.
biological target: human Ack1 kinase (Homo sapiens); experiment: In vitro Ack1 assay (TranScreener ADP2 FP, generation of ADP); assay type: biochemical; conditions: 12.5 uM compound; 3.5 µM ATP; read-out: Ack1 inh% @12.5 uM
Sequence (Q07912 whole entry): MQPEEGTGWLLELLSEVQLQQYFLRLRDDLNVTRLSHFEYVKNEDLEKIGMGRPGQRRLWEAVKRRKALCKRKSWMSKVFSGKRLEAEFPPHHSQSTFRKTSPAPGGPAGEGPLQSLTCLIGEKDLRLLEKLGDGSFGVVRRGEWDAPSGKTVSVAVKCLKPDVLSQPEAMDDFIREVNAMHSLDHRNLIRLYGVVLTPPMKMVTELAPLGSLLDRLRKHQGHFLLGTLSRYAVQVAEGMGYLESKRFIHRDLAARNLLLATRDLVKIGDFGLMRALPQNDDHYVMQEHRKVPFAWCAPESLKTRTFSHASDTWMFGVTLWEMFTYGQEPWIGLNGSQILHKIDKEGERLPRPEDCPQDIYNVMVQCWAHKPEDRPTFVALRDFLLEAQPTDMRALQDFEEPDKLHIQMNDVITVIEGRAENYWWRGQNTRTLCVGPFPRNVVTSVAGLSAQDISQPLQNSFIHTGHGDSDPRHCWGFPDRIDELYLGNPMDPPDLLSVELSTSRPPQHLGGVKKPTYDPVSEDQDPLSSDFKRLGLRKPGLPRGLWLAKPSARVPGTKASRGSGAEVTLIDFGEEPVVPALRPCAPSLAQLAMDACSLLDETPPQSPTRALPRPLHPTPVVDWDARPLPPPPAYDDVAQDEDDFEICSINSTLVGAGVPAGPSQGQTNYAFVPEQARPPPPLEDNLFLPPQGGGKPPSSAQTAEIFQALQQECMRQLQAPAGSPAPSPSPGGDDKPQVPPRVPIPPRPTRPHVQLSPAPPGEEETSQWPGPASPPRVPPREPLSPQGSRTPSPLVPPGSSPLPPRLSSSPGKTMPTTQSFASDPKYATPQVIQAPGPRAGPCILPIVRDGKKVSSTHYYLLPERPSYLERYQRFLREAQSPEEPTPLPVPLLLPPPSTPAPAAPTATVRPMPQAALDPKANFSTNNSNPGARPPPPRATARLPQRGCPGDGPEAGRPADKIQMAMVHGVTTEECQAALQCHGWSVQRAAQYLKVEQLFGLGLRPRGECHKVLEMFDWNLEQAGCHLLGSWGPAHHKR
The figure you give is taken to be in %; do not add the unit.

Take a look at these entries with their results.
COc1cccc([C@@H](C)NC(=O)c2ccc3c(c2)/C(=C(/Nc2ccc(CN4CCCCC4)cc2)c2ccccc2)C(=O)N3)c1 [Compound 22] | 83.8
COc1ccc([C@@H](C)NC(=O)c2ccc3c(c2)/C(=C(/Nc2ccc(CN4CCCCC4)cc2)c2ccccc2)C(=O)N3)cc1 [Compound 21] | 87
O=C1Nc2ccc(C(=O)NCc3ccccc3)cc2/C1=C(/Nc1ccc(CN2CCCCC2)cc1)c1ccccc1 [Compound 20] | 72.7

For the next question, use this compound.
Query: Item C[C@@H](NC(=O)c1ccc2c(c1)/C(=C(/Nc1cccc(CN3CCCCC3)c1)c1ccccc1)C(=O)N2)c1ccccc1 [Compound 13] has what recorded inhibition at 12.5 µM?
Reply: 13.7

---

tested on: HCT-116 human colon carcinoma cell line; test: In vitro growth inhibition of colon carcinoma cells, HCT-116 (CellTiter-Glo); type: cell-based; details: 72 hours incubation, read-out: HCT116 EC50
observation_type: pEC50
The meaning of pEC50 here: minus log10 of the concentration in molar units.

Recorded results for 8 compounds are shown here.
COc1cccc([C@@H](C)NC(=O)c2ccc3c(c2)/C(=C(/Nc2cccc(CN4CCCCC4)c2)c2ccccc2)C(=O)N3)c1 | 6.42
C[C@@H](NC(=O)c1ccc2c(c1)/C(=C(/Nc1cccc(CN3CCCCC3)c1)c1ccccc1)C(=O)N2)c1ccccc1 | 6.77
C[C@@H](NC(=O)c1ccc2c(c1)/C(=C(/Nc1ccc(CN3CCN(C)CC3)cc1)c1ccccc1)C(=O)N2)c1cccc(Cl)c1 | 7.70
COc1cccc([C@@H](C)NC(=O)c2ccc3c(c2)/C(=C(/Nc2ccc(CN4CCN(C)CC4)cc2)c2ccccc2)C(=O)N3)c1 | 7.52
C[C@@H](NC(=O)c1ccc2c(c1)/C(=C(/Nc1ccc(CN3CCCCC3)cc1)c1ccccc1)C(=O)N2)c1ccc(F)cc1 | 7.40
COc1cccc([C@@H](C)NC(=O)c2ccc3c(c2)/C(=C(/Nc2ccc(CN4CCCCC4)cc2)c2ccccc2)C(=O)N3)c1 | 7.40
COc1ccc(CNC(=O)c2ccc3c(c2)/C(=C(/Nc2ccc(CN4CCN(C)CC4)cc2)c2ccccc2)C(=O)N3)cc1OC | 5.42
Cc1ccc([C@@H](C)NC(=O)c2ccc3c(c2)/C(=C(/Nc2cccc(CN4CCCCC4)c2)c2ccccc2)C(=O)N3)cc1 | 5.85

Query: Would you mind telling me what pEC50 value was observed for `COc1cccc(CNC(=O)c2ccc3c(c2)/C(=C(/Nc2ccc(CN4CCN(C)CC4)cc2)c2ccccc2)C(=O)N3)c1` ?
Reply: 6.96

Query: // lookup pEC50 for `CC[C@@H](NC(=O)c1ccc2c(c1)/C(=C(/Nc1ccc(CN3CCCCC3)cc1)c1ccccc1)C(=O)N2)c1ccccc1`
Reply: 8.00

Query: Requested field: pEC50. Item: `CC[C@@H](NC(=O)c1ccc2c(c1)/C(=C(/Nc1cccc(CN3CCCCC3)c1)c1ccccc1)C(=O)N2)c1ccccc1`
Reply: 7.52

Query: Field request: pEC50 | item: `C[C@H](NC(=O)c1ccc2c(c1)/C(=C(/Nc1ccc(CN3CCCCC3)cc1)c1ccccc1)C(=O)N2)c1ccccc1`
Reply: 8.00

Query: May I ask what pEC50 has been recorded for `O=C1Nc2ccc(C(=O)NCc3ccccc3)cc2/C1=C(/Nc1ccc(CN2CCCCC2)cc1)c1ccccc1` ?
Reply: 7.70
